Source of measurements: paper PMC7774954

target: MAGI2 PDZ 3 (Homo sapiens, UniProt Q86UL8); construct: made in house; host or cells: E. coli; test: Holdup assay, MAGI2-3; assay type: binding; conditions: MAGI2-3
Sequence (Q86UL8 605-683 limits assumed): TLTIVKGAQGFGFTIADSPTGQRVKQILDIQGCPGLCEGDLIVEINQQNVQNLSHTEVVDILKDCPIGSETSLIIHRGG
*1 amine or outer side, *2 acyl side, *3 side chain or, on linkers, in order; H or OH if unused. Where a SMILES comes first, the peptide text is derived from it. The star is where a group is joined. X1 = O=C(CCCC[C@@H]1SC[C@@H]2NC(=O)N[C@@H]21)NCCCOCCOCCOCCCN*; Suc = O=C(CCC(=O)[*:2])[*:1]
assay.readout: BI

In the examples that follow, each entry is paired with its recorded BI.
INSERT INTO results (compound, recorded_measurement) VALUES
  ('CC[C@H](C)[C@H](NC(=O)[C@H](CCC(N)=O)NC(=O)[C@@H](NC(=O)[C@H](Cc1c[nH]cn1)NC(=O)[C@H](CCC(N)=O)NC(=O)[C@H](CC(=O)O)NC(=O)[C@H](CCC(=O)O)NC(=O)[C@H](CC(=O)O)NC(=O)[C@H](Cc1ccccc1)NC(=O)[C@@H]1CCCN1C(=O)CCC(=O)NCCCOCCOCCOCCCNC(=O)CCCC[C@@H]1SC[C@@H]2NC(=O)N[C@@H]21)[C@@H](C)O)C(=O)N[C@H](C(=O)N[C@@H](CCCCN)C(=O)N[C@H](C(=O)O)C(C)C)[C@@H](C)O [PTEN_13] ({X1-Suc}-PFDEDQHTQITKV-OH)', 0.342),
  ('CC[C@H](C)[C@H](NC(=O)[C@H](CCC(N)=O)NC(=O)[C@@H](NC(=O)[C@H](Cc1c[nH]cn1)NC(=O)[C@H](CCC(N)=O)NC(=O)[C@H](CC(=O)O)NC(=O)[C@H](CCC(=O)O)NC(=O)[C@H](CC(=O)O)NC(=O)CCC(=O)NCCCOCCOCCOCCCNC(=O)CCCC[C@@H]1SC[C@@H]2NC(=O)N[C@@H]21)[C@@H](C)O)C(=O)N[C@H](C(=O)N[C@@H](CCCCNC(C)=O)C(=O)N[C@H](C(=O)O)C(C)C)[C@@H](C)O', 0.625),
  ('CC[C@H](C)[C@H](NC(=O)[C@H](CCC(N)=O)NC(=O)[C@@H](NC(=O)[C@H](Cc1c[nH]cn1)NC(=O)[C@H](CCC(N)=O)NC(=O)[C@H](CC(=O)O)NC(=O)[C@H](CCC(=O)O)NC(=O)[C@H](CC(=O)O)NC(=O)CCC(=O)NCCCOCCOCCOCCCNC(=O)CCCC[C@@H]1SC[C@@H]2NC(=O)N[C@@H]21)[C@@H](C)O)C(=O)N[C@H](C(=O)N[C@@H](CCCNC(=N)N)C(=O)N[C@H](C(=O)O)C(C)C)[C@@H](C)O [PTEN_KR] ({X1-Suc}-DEDQHTQITRV-OH)', 0.52);

Kindly review the next compound as well.
[ask] Please tell me the measured BI for CC[C@H](C)[C@H](NC(=O)[C@H](CCC(N)=O)NC(=O)[C@@H](NC(=O)[C@H](Cc1c[nH]cn1)NC(=O)[C@H](CCC(N)=O)NC(=O)[C@H](CC(=O)O)NC(=O)[C@H](CCC(=O)O)NC(=O)[C@H](CC(=O)O)NC(=O)CCC(=O)NCCCOCCOCCOCCCNC(=O)CCCC[C@@H]1SC[C@@H]2NC(=O)N[C@@H]21)[C@@H](C)O)C(=O)N[C@H](C(=O)N[C@@H](CCCCN)C(=O)N[C@H](C(=O)O)C(C)C)[C@@H](C)O ; system: MAGI2 PDZ 3 (Homo sapiens, UniProt Q86UL8).
[reply] 0.407
